Examples of compounds with documented TGI follow.
system: MDA-MB-468 breast; assay: NCI tumour cell line growth inhibition, 48 h
Response body: numeric value in µM, unit text excluded.

Return reported TGI; argument: CCOC(=O)c1ccc(Nc2sc(C(=O)c3cccc([N+](=O)[O-])c3)c(N)c2C#N)cc1
4.53

I would be grateful if you could share the reported TGI for O=C1Nc2cc(Cl)ccc2/C1=C\c1ccc(OCc2ccc(Br)cc2F)cc1 .
5.21

Would you kindly share the measured TGI for Nc1nc(N)c2c(ccc3nccc32)[nH]1 ?
21.3

Look at this compound and give its reported TGI. O=C(CSc1nc2sc3c(c2c(=O)n1-c1ccc(Cl)cc1)CCCC3)N/N=C/C=C/c1ccccc1
4.11

# input compound: ClC1=NC(Cl)C(Cl)=N/C1=N\c1ncn[nH]1 (stereo unspecified) ; wanted: its TGI
3.39
